Experiment: Pharmacokinetic study in SD rats
Assay type: in vivo
Details: rat, in vivo, Oral administration, 10 mg/kg
Experimental: Experimental Example 2: Pharmacokinetic study of compounds in SD rats Experimental animals: SD rats, male, 6-8 weeks old. […] Sample monitoring: The concentrations of the designated compound drugs in plasma were determined by the LC-MS/MS method; the main pharmacokinetic parameters were calculated using the Winnolin 8.3 non-compartmental model.
measuredMetric: AUC(0-inf) (ng·h/mL)
Answer with a number only, understood to be in ng·h/mL.

Please report the recorded AUC(0-inf) for COc1c(C2C(C(=O)Nc3ccnc(C(N)=O)c3)OC(C)(C(F)(F)F)C2C)ccc(F)c1F (racemic) [VX-548(rac)] . 4970

---

Assay: Pharmacokinetic study in SD rats
Type: in vivo
Settings: rat, in vivo, Injection, 2 mg/kg
measuredMetric: AUC(0-inf) (ng·h/mL)
Answer with a number only, understood to be in ng·h/mL.

Please report the recorded AUC(0-inf) for COc1c(C2C(C(=O)Nc3ccnc(C(N)=O)c3)OC(C)(C(F)(F)F)C2C)ccc(F)c1F (racemic) [VX-548(rac)] . 2650

---

Tested on: incision pain model
Assay: Incision pain model in ICR mice, Von Frey test
Format: in vivo
Conditions: 50 mg/kg group, baseline before administration, Mean + SEM, n = 10
measuredMetric: PWT 50% value (g) Post-surgery, Preadministration
Answer with a number only, understood to be in g.

INSERT INTO assay_data (smilestext, unitssymbol, measured) VALUES
  ('CO/N=C(\N)c1cc(NC(=O)[C@@H]2S[C@@](C)(C(F)(F)F)C[C@H]2c2ccc(F)c(F)c2OC)ccn1', 'g', 0.22),
  ('COc1c([C@@H]2C[C@](C)(C(F)(F)F)S[C@H]2C(=O)Nc2ccn3nncc3c2)ccc(F)c1F', 'g', 0.24),
  ('COc1c([C@@H]2C[C@](C)(C(F)(F)F)S[C@H]2C(=O)Nc2ccnc(NC#N)c2)ccc(F)c1F', 'g', 0.24);

Please report the recorded PWT 50% value (g) Post-surgery, Preadministration for COc1c([C@@H]2C[C@](C)(C(F)(F)F)S[C@H]2C(=O)Nc2cccc(S(=O)(=O)N=[N+]=[N-])c2)ccc(F)c1F . 0.22

---

Assay: Pharmacokinetic study in ICR mice
Type: in vivo
Settings: mouse, in vivo, iv, Injection (i.v.), 2 mg/kg
measuredMetric: AUC(0-inf) (ng·h/mL)
Answer with a number only, understood to be in ng·h/mL.

Please report the recorded AUC(0-inf) for COc1c([C@@H]2C[C@](C)(C(F)(F)F)S[C@H]2C(=O)Nc2ccc3c(c2)S(=O)(=O)NC3)ccc(F)c1F . 2030

---

Experiment: Pharmacokinetic study in SD rats
Assay type: in vivo
Conditions: male, rat, plasma, intravenous, Injection, 2 mg/kg
measuredMetric: AUC(0-inf) (ng·h/mL)
Answer with a number only, understood to be in ng·h/mL.

Please report the recorded AUC(0-inf) for COc1c(C2CC(C)(C(F)(F)F)SC2C(=O)Nc2ccnc(C(N)=O)c2)ccc(F)c1F (stereo not shown) . 3840

---

Test: Pharmacokinetic study in ICR mice
Assay type: in vivo
Details: mouse, in vivo, Oral administration, 10 mg/kg
Description: Experimental Example 3: Pharmacokinetic study of compounds in ICR mice Experimental animals: ICR mice, male, 6-8 weeks old. […] Sample test: The concentrations of the designated compound drugs in plasma were determined by the LC-MS/MS method; the main pharmacokinetic parameters were calculated using the Winnolin 8.3 non-compartmental model. […]
measuredMetric: AUC(0-inf) (ng·h/mL)
Answer with a number only, understood to be in ng·h/mL.

Please report the recorded AUC(0-inf) for COc1c([C@@H]2C[C@](C)(C(F)(F)F)S[C@H]2C(=O)Nc2ccc3c(c2)S(=O)(=O)NC3)ccc(F)c1F . 8130

---

Assay: Pharmacokinetic study in SD rats
Type: in vivo
Conditions: male, rat, plasma, intravenous, Injection, 2 mg/kg
measuredMetric: half-life

Please report the recorded half-life for COc1c(C2CC(C)(C(F)(F)F)SC2C(=O)Nc2ccnc(C(N)=O)c2)ccc(F)c1F (stereo not shown) . 4.86 h

---

Assay: Tissue distribution study (dorsal root ganglia) in ICR mice
Type: in vivo
Conditions: male, mouse, oral administration 20 mg/kg, Time 12 h
Below: a set of entries, each annotated with reported concentration at 12 h.
Answer with a number only, understood to be in ng/g.

Consider the reported concentration at 12 h for these compounds:
INSERT INTO assay_data (smilestext, measuredmetric, measured) VALUES
  ('COc1c([C@@H]2C[C@](C)(C(F)(F)F)S[C@H]2C(=O)Nc2ccnc(C#N)c2)ccc(F)c1F', 'concentration at 12 h', 2220),
  ('COc1c([C@@H]2C[C@](C)(C(F)(F)F)S[C@H]2C(=O)Nc2ccnc(N=[N+]=[N-])c2)ccc(F)c1F', 'concentration at 12 h', 1910);

Please examine the following record next.
Please report the recorded concentration at 12 h for COc1c([C@@H]2C[C@](C)(C(F)(F)F)S[C@H]2C(=O)Nc2ccc(F)c(S(N)(=O)=O)c2)ccc(F)c1F . 489

---

Target: Nav1.8 channels (Homo sapiens, UniProt Q9Y5Y9)
Construct: expressed in transfected cells
Sequence (Q9Y5Y9 whole entry): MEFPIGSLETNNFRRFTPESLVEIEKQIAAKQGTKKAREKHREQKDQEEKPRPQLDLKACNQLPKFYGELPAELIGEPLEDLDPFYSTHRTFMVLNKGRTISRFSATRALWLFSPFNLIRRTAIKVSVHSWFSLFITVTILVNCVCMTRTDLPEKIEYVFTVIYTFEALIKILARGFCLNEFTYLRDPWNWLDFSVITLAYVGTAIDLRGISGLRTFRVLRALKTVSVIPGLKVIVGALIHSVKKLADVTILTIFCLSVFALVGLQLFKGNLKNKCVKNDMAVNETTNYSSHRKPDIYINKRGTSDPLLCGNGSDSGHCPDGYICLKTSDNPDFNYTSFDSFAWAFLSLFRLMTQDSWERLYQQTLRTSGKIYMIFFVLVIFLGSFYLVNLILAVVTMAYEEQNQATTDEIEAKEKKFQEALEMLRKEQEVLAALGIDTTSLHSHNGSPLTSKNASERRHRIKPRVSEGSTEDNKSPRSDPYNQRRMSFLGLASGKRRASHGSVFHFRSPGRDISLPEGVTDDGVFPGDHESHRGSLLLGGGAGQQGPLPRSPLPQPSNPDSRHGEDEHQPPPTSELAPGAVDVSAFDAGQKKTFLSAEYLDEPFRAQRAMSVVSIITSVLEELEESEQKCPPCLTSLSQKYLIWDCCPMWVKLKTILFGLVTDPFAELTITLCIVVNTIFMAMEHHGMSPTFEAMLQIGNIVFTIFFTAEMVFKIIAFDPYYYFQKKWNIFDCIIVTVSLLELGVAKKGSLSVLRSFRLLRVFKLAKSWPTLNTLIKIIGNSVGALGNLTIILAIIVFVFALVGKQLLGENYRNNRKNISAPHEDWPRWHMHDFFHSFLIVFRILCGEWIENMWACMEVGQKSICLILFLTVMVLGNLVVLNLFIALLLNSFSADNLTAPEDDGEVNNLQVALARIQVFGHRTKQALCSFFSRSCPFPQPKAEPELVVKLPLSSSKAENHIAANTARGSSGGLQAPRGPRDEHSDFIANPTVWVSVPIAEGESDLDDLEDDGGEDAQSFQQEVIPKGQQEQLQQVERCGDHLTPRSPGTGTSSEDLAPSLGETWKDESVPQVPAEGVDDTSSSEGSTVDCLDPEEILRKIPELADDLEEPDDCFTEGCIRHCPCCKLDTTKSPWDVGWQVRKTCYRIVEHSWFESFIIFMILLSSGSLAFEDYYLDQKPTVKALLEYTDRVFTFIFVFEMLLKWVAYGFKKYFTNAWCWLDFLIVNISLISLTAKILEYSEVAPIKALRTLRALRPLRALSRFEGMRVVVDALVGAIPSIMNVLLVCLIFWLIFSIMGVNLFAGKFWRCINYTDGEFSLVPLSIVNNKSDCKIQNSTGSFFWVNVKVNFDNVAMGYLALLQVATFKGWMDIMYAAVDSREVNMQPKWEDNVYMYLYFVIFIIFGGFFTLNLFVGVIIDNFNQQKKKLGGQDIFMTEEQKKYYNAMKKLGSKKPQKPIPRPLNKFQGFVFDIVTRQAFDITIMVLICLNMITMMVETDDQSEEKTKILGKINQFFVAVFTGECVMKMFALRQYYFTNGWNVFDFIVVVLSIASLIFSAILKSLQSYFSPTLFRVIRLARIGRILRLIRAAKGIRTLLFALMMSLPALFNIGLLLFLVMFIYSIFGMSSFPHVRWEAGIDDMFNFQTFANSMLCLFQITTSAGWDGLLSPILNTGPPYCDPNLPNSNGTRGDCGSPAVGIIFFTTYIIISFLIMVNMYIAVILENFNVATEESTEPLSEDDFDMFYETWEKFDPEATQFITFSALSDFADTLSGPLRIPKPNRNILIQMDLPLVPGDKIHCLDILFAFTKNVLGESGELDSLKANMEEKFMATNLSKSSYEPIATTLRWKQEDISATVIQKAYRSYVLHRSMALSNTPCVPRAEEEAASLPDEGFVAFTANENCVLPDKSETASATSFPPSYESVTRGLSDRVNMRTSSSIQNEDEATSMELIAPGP
Experiment: Manual patch-clamp, current of stably overexpressed Nav1.8 channels (resting state voltage program)
Format: cell-based
Settings: concentration of 10 nM, read-out: Inhibition rate %
measuredMetric: inhibition at 0.01 µM (%)
Answer with a number only, understood to be in %.

Consider the reported inhibition at 0.01 µM for these compounds:
INSERT INTO assay_data (compound, measuredmetric, measured) VALUES
  ('COc1c(C2CC(C)(C(F)(F)F)SC2C(=O)Nc2cc[nH]c(=O)c2)ccc(F)c1F (stereo not shown)', 'inhibition at 0.01 µM', 97.9),
  ('COc1c(C2CC(C)(C(F)(F)F)SC2C(=O)Nc2ccc(B(O)O)c(F)c2)ccc(F)c1F (stereo not shown)', 'inhibition at 0.01 µM', 95.6),
  ('[2H][C@@]1(C(=O)Nc2cccc(B(O)O)c2)S[C@@](C)(C(F)(F)F)C[C@H]1c1ccc(F)c(F)c1OC', 'inhibition at 0.01 µM', 87.5),
  ('COc1c([C@@H]2C[C@](C)(C(F)(F)F)S[C@H]2C(=O)Nc2ccnc(C#N)c2)ccc(F)c1F', 'inhibition at 0.01 µM', 97.7);

Checklist item: inhibition at 0.01 µM tested on Nav1.8 channels (Homo sapiens, UniProt Q9Y5Y9), entry COc1c([C@@H]2C[C@](C)(C(F)(F)F)S[C@H]2C(=O)Nc2csc(B(O)O)c2)ccc(F)c1F , value? 91.5

Checklist item: inhibition at 0.01 µM tested on Nav1.8 channels (Homo sapiens, UniProt Q9Y5Y9), entry COc1c(C2CC(C)(C(F)(F)F)SC2C(=O)Nc2csc(B(O)O)c2)ccc(F)c1F (stereo not shown) , value? 79.8

Checklist item: inhibition at 0.01 µM tested on Nav1.8 channels (Homo sapiens, UniProt Q9Y5Y9), entry COc1c(C2CC(C)(C(F)(F)F)SC2C(=O)Nc2ccc(=O)n(C)c2)ccc(F)c1F (stereo not shown) , value? 86

---

Below: a set of entries, each annotated with reported inhibition at 0.001 µM.
Molecular target: Nav1.8 channels (Homo sapiens)
Construct: expressed in transfected cells
Test: Manual patch-clamp, current of stably overexpressed Nav1.8 channels (resting state voltage program)
Type: cell-based
Conditions: concentration of 1 nM, read-out: Inhibition rate %
Answer with a number only, understood to be in %.

Consider the reported inhibition at 0.001 µM for these molecules:
INSERT INTO assay_data (molecule, measuredmetric, measured) VALUES
  ('COc1c([C@@H]2C[C@](C)(C(F)(F)F)S[C@H]2C(=O)Nc2ccc(F)c(N=[N+]=[N-])c2)ccc(F)c1F', 'inhibition at 0.001 µM', 81.9),
  ('COc1c([C@@H]2C[C@](C)(C(F)(F)F)S[C@H]2C(=O)Nc2ccnc(SCN)c2)ccc(F)c1F', 'inhibition at 0.001 µM', 88.5),
  ('COc1c(C2CC(C)(C(F)(F)F)SC2C(=O)Nc2cccc(S(C)(=N)=O)c2)ccc(F)c1F (stereo not shown)', 'inhibition at 0.001 µM', 91.2),
  ('COc1c([C@@H]2C[C@](C)(C(F)(F)F)S[C@H]2C(=O)Nc2ccn3nncc3c2)ccc(F)c1F', 'inhibition at 0.001 µM', 77.8),
  ('CCS(=O)(=O)Nc1cccc(NC(=O)[C@@H]2S[C@@](C)(C(F)(F)F)C[C@H]2c2ccc(F)c(F)c2OC)c1', 'inhibition at 0.001 µM', 49.9);

Please report the recorded inhibition at 0.001 µM for COc1c([C@@H]2C[C@](C)(C(F)(F)F)S[C@H]2C(=O)Nc2ccnc(C(=O)NO)c2)ccc(F)c1F . 47.7

Please report the recorded inhibition at 0.001 µM for COc1c([C@@H]2C[C@](C)(C(F)(F)F)S[C@H]2C(=O)Nc2cn(S(=O)(=O)C3CC3)nc2C)ccc(F)c1F . 84.6
